response vs control in vivo at 8 mg/kg by entry:
Tested on: Ehrlich carcinoma
EXPERIMENTAL DETAILS: Antineoplastic effect on Ehrlich carcinoma in mice (survival, T/C percent)
Assay type: in vivo, male ICR mouse
COND: Mus musculus, Ehrlich, ip, 720 h, dose 8.0 mg/kg, in the abdomen once a day for 7 days; observation period 60 days
MEASURED METRIC: response vs control in vivo at 8 mg/kg (%)

MOLECULE	MEASURED METRIC	READOUT NUMBER
O=[Se]1OCCCO1	response vs control in vivo at 8 mg/kg	83
CC1CO[Se](=O)O1 (stereo not shown)	response vs control in vivo at 8 mg/kg	105
O=[Se](O)c1ccccc1	response vs control in vivo at 8 mg/kg	141
CCO[Se](=O)c1ccccc1 (stereo not shown) [Compound 2, ethyl phenylseleninate]	response vs control in vivo at 8 mg/kg	134
O=[Se]1OCCO1	response vs control in vivo at 8 mg/kg	108
CCCO[Se](=O)OCCC	response vs control in vivo at 8 mg/kg	102
CCO[Se](=O)OCC	response vs control in vivo at 8 mg/kg	201
O=[Se](OCCCl)OCCCl	response vs control in vivo at 8 mg/kg	194
CC(Cl)CO[Se](=O)OCC(C)Cl (stereo not shown)	response vs control in vivo at 8 mg/kg	219
CC(C)O[Se](=O)OC(C)C	response vs control in vivo at 8 mg/kg	126

Values were extracted from patent EP0182317A2.
